- Assay target: human metabotropic Glutamate 4 receptor (Homo sapiens, UniProt Q14833)
- Construct: expressed in transfected cells; host or cells: HEK293
- Sequence (Q14833 33-912): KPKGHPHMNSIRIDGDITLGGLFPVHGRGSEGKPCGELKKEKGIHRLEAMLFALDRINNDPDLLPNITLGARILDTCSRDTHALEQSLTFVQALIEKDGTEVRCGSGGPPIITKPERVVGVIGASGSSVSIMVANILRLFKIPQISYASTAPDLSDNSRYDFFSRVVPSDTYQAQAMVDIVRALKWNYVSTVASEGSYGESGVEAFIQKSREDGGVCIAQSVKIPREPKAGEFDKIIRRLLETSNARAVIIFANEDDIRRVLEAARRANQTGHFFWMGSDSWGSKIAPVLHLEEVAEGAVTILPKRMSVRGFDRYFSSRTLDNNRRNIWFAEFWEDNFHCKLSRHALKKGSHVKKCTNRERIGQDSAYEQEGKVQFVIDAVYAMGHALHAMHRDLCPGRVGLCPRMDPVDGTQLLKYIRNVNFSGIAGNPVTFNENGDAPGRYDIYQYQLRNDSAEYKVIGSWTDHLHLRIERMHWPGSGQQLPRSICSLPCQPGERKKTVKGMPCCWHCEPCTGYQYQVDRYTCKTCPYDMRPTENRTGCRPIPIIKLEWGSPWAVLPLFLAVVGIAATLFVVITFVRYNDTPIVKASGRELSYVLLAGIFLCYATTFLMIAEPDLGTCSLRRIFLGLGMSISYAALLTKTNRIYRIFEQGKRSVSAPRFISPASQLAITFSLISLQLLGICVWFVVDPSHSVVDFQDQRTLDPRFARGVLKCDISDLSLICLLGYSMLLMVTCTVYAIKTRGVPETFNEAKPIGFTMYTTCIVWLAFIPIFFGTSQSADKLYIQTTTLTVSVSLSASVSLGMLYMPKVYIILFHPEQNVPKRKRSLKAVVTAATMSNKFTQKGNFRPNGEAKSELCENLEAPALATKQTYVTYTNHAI
- Protocol description: In vitro testing of mGluR4 potency (Assay A), cAMP HTRF in HEK293 cells
- Type: cell-based
- Conditions used: Table 2; HEK293 cell overexpressing human mGluR4; 10 uM L-Glutamic acid, 1 uM forskolin
- Experimental: A. In Vitro Testing of mGluR4 Potency The in vitro activity of the compounds according to the invention may be investigated as follows: The HEK293 cell overexpressing the human metabotropic Glutamate 4 receptor were thawed at 37° C. and immediately diluted with cell culture medium. […] The emission at 615 nm and 665 nm (Excitation wavelength: 320 nm) are measured on the EnVision™ reader (PerkinElmer). The ratio between the emission at 665 nm and 615 is calculated by the reader. […]
Readout kind: IC50 (nM)

Please review the following examples before continuing.
compound="Cc1cnc(C(=O)N[C@@H](C[C@H]2CCCO2)c2nc3c(C)c(C#N)cnc3n2C(C)C)cn1 [Example 18]" readout_kind=IC50 recorded_measurement=7
compound="Cc1cnc(C(=O)N[C@H](c2nc3cc(Cl)cnc3n2C(C)C)C2CC2)cn1 [Example 10]" readout_kind=IC50 recorded_measurement=4
compound="Cc1cnc(C(=O)N[C@H](c2nc3c(C)c(C#N)cnc3n2C(C)C)C2CCC2)cn1 [Example 15]" readout_kind=IC50 recorded_measurement=6
compound="Cc1nc(C(F)(F)F)cc2c1nc([C@@H](NC(=O)c1cnc(C(F)F)cn1)C1CC1)n2C(C)C [Example 22]" readout_kind=IC50 recorded_measurement=10
compound="Cc1cnc(C(=O)N[C@H](c2nc3cc(Cl)cnc3n2C(C)C)[C@@H]2CCCO2)cn1 [Example 41]" readout_kind=IC50 recorded_measurement=21
compound="Cc1cnc(C(=O)N[C@H](c2nc3cc(Cl)cnc3n2C(C)C)C2(O)CCC2)cn1 [Example 25]" readout_kind=IC50 recorded_measurement=12
compound="Cc1cnc(C(=O)N[C@H](c2nc3cc(F)cnc3n2C(C)C)C2CC2)cn1 [Example 44]" readout_kind=IC50 recorded_measurement=26
compound="Cc1cnc(C(=O)N[C@H](c2nc3cc(Cl)cnc3n2C(C)C)[C@H]2CCCO2)cn1 [Example 34]" readout_kind=IC50 recorded_measurement=16

[1] CCn1c([C@@H](NC(=O)c2cnc(C)cn2)C2CC2)nc2cc(C(F)(F)F)ncc21 [Example 47]
[2] CO[C@H](C)[C@H](NC(=O)c1cnc(C(F)F)cn1)c1nc2cc(C(F)(F)F)cnc2n1C(C)C [Example 24]
Which value of IC50 is smaller, the one for 1 or the one for 2 ? Identify your pick by its label. 2
(2: 10 nM, 1: 41 nM)

* * *

- Assay target: human metabotropic Glutamate 4 receptor (Homo sapiens)
- Construct: expressed in transfected cells; host or cells: HEK293
- Protocol description: In vitro testing of mGluR4 potency (Assay A), cAMP HTRF in HEK293 cells
- Format: cell-based
- Conditions used: Table 2; HEK293 cell overexpressing human mGluR4; 10 uM L-Glutamic acid, 1 uM forskolin
pIC50: −log10 of the molar value.
Readout kind: pIC50

[a] CO[C@H](C)[C@H](NC(=O)c1cnc(C)cn1)c1nc2cc(Cl)cnc2n1C(C)C
[b] Cc1c(C#N)cnc2c1nc([C@@H](NC(=O)c1cnc(C(F)F)cn1)[C@@H](C)OC(F)F)n2C(C)C
# argmax over pIC50 for candidates a and b # reply format: chosen label a
(a: 8.40, b: 8.10)

[I] CC(C)n1c([C@@H](NC(=O)c2cnc(C(F)F)cn2)C2CC2)nc2cc(C(F)(F)F)ncc21
[II] O=C(N[C@H](c1nc2cc(C(F)(F)F)ncc2n1CC(F)F)C1CC1)c1cnc(C(F)F)cn1
[III] Cc1c(C#N)cnc2c1nc([C@@H](NC(=O)c1cnc(C(F)F)cn1)C1CCC1)n2C(C)C
Which order do these items take when sorted by rising pIC50? List them. Please, when replying, give the labels in the order that was requested. I, II, III
(I: 7.51, II: 7.74, III: 8.52)

[I] Cc1cnc(C(=O)N[C@H](c2nc3cc(C(F)(F)F)cnc3n2C(C)C)C2CC2)cn1
[II] Cc1cnc(C(=O)N[C@H](c2nc3c(C)c(C#N)cnc3n2C(C)C)[C@@H](C)OC(F)F)cn1
[III] Cc1c(C#N)cnc2c1nc([C@@H](NC(=O)c1cnc(C(F)F)cn1)[C@@H]1CCCO1)n2C(C)C
List by increasing pIC50. Reply: labels, ordered per the request. III, II, I
(III: 7.74, II: 8.05, I: 8.70)
